- procedureText: yeast display, Sf9 membrane polyspecificity reagent, FACS + sequencing; frameworks hold sequencing errors
quantityName: polyreactivity (PSR sort gate)

Known polyreactivity (PSR sort gate) results, listed for orientation:
sequence: QVQLVESGGGLVQAGGSLRLSCAASGIIFSPYAMGWYRQAPGKERELVAAISYSGGSTYYADSVKGRYTISRDNAKNSVYLQMNSLKPEETAVYYCAVFYSYYLAFMGYWDYDYWGQGTQVTVSS
quantityName: polyreactivity (PSR sort gate)
result: low polyreactivity
//
sequence: QVQLVESGGGLVQAGGSLRLSCAASGRIFAGYAMGWYRQAPGKERELVAAISDGGTTNYADSVKGRFTISRDNAKNTVYLQMNSLKPEDTAVYYCAAKSRTYQSYYYWGQGTQVTVSS
quantityName: polyreactivity (PSR sort gate)
result: low polyreactivity
//
sequence: QVQLVESGGGLVQAGGSLRLSCAASGRIFVRYTMGWYRQAPGKERELVAAINSGGRTYYADSVKGRFTISRDNAKNTVYLQMNSLKPEDTAVYYCAADRVYYGQRDYWGQGTQVTVSS
quantityName: polyreactivity (PSR sort gate)
result: high polyreactivity
//
sequence: QVQLVESGGGLVQAGGSLRLSCAASGRIFGVYAMGWYRQAPGKERQLVAAITARGGSTYYADSVKGRFTISRDNAKNTVYLQMNSLKPEDTAVYYCATRLYKRTRTITYGYWGQGTQVTVSS
quantityName: polyreactivity (PSR sort gate)
result: high polyreactivity

Exercise: Sample QVQLVESGGGLVQAGGSLRLSCAASGRTFAGNAMGWYRQAPGKERELVAAISWSGGRTYYADSVKGRFTISRDNAKNTVYLQMNSLKPEETAVYYCAAVRASSRFRYGYWGQGTQVTVSS — what was its polyreactivity (PSR sort gate)?
Solution: high polyreactivity

Exercise: Sample QVQLVESGGGLVQAGGSLRLSCAASGRIFKFYDMGWYREAPGKERELVAAISHAGRTNYADSVKGRFTISRDNAKNTVYLQMNSLKPEDTAVYYCNTDYILVRGVPWYYKLDYWGQGTQVTVSS — what was its polyreactivity (PSR sort gate)?
Solution: high polyreactivity

====

- procedureText: yeast display, Sf9 membrane polyspecificity reagent, FACS + sequencing; frameworks hold sequencing errors
quantityName: polyreactivity (PSR sort gate)

Known polyreactivity (PSR sort gate) results, listed for orientation:
sequence: QVQLVESGGGLVQAGGSLRLSCAASGFTSSYYAMGWYRQAPGKERELVAAISSSGGSTYYADSVKGRFTISRDNAKNTVYLQMNSLKPEDTAVYYCAAARRERAGRQYDYWGQGTQVTVSS
polyreactivity (PSR sort gate): low polyreactivity

sequence: QVQLVESGGGLVPAGGSLRLSCAASGSIFVQNAMGWYRQAPGKERELVAVINSGDSTNYADSVKGRFTISRDNAKNTVYLQMNSLKPEDTAVYYCNADVSYTSEDQRALFTNVYYWGQGTQVTVSS
polyreactivity (PSR sort gate): low polyreactivity

sequence: QVQLVESGGGLVQAGGSLRLSCAASGSTSVINAMGGNRQAPGKERELVAGISGSGGSTYYADSVKGRFTISRDNAKNTVYLLMNSLKPEDTAVYYCAKRFYRPVPGGYYWGQGTQVTVSS
polyreactivity (PSR sort gate): high polyreactivity

sequence: QVQLQESGGGLVQAGGSMRLSCAATGSISELRPMGWYSQAPGKERELVAGISTGGSTNYADSVKGRFTISRDNAKNTVFLQMNSLKPEDTAVYYCAAGSYGEGTYDYWGQGTQVTVRS
polyreactivity (PSR sort gate): high polyreactivity

Exercise: Sample QVQLVESGGGLVQAGGSLRLICAASGRIYYGYAMGWYRQAPGKERELVSTITWSGGSTYYADSVKGRFTISRDNAKNTVYLQMNSLKPEDTAVYYCAAYSPYIYQAYRYDYWGQGTQVTVSS — what was its polyreactivity (PSR sort gate)?
Solution: low polyreactivity

Exercise: Sample QVQLVESGGGLVQAGGSLRLSCAASGRIFWVYAMGWYRQAPGKERELVAAISTRGGSTYYADSVKGRFTISRDNAKNRVYLQKNRLKPDDTAVYYCAADYDDKYDYWGQGTQVTVSS — what was its polyreactivity (PSR sort gate)?
Solution: low polyreactivity

Exercise: Sample QVQLVDSGGGLVQAGGSLRLSCAASGIIFWYYTRGWYRQAPGKERELVASISRGGSTYYADSVKGRFTISRDNAKNTVYLQMNSLKPEDTAVYYCARRPNTGPYGNYDYWGQGTQVTVSS — what was its polyreactivity (PSR sort gate)?
Solution: high polyreactivity

Exercise: Sample QGQVVESGGGLVQAGGSLRLSCAASGSTFYGYAMGWYREAAGKERELVAAISRDGSTNYADSVKGRFTISRDNAKNTVYLQMNSLKPEDTAVYYCATRTKKRAPYKFYSWGQGTQVTVSS — what was its polyreactivity (PSR sort gate)?
Solution: high polyreactivity

Exercise: Sample QDQLVESGGGLVQAGGSLRLSCAASGSIFGGYGMGWYRQAHGKERELVAAITSGSSTYYADSVKGRFTISRDNAKNTVYLQMNSLKPEDTAVYYCAARPYPNSAYEGDYWGRGTQVTVSS — what was its polyreactivity (PSR sort gate)?
Solution: low polyreactivity

Exercise: Sample QVQLVESGGGLVQAGGSLRLSCAASGFIFVRNAMGWYRQAPGKERELVAVITRGGSTYYADSVKGRFTISRDNAKNTVYLQMNSLKPEDTAVYYCDARYYRGTYGRTEGAMDYWGQGTQVTVSS — what was its polyreactivity (PSR sort gate)?
Solution: high polyreactivity

Exercise: Sample QVQLVESGGGLVQAGGSLRLSCAASGSIFDAYALGWYRQAPGKERELVADITFSAGRTYYADSVKGRFTITRDNAKNTVYLQMNSLKPEDTAVYYCAADSIVGDGYWSYYWGQGTQVTVSS — what was its polyreactivity (PSR sort gate)?
Solution: low polyreactivity

Exercise: Sample QVQLVESGGGLVQAGGSLRLSCAPSGSIFPYYAMGWYRQAPGKERELVAVITTSGGRTYYADSVKGRFTISRDNAKNTVYLQMNSLKPEDTAVYYCATDVRQGSGWRYYYWGQGTQVTVSS — what was its polyreactivity (PSR sort gate)?
Solution: high polyreactivity

Exercise: Sample QVQLVESGGGLVQAGGSLRVSCAASGIIFDYYVMGWYRQAPGQERELVAAISRSCDRTNYADSVKGRFTISRDNAKNTVYLQMNSLKPEDTAVYYCAARVSIRGGGYEYWGQGTQLTVSS — what was its polyreactivity (PSR sort gate)?
Solution: high polyreactivity

Exercise: Sample QVQLVESGGGLVQAGGSLRLSCAASGFTFVINDMGLYRQAPGKERELVADITSGGDTYYADSVKGRFTISRDNAKNTVYLQMNSLKPEDTAVYYCAADIYPDWIYLLYGYWGQGTQVTVSS — what was its polyreactivity (PSR sort gate)?
Solution: low polyreactivity

Exercise: Sample QVQLVESGGGLVQAGGSLRLSCAASGSTFFGNTMGWYRQAPGKERELVAAISRRGGSTYYADSVKGRFTISRDNAKNTVYLQMTSLIPEDTAVYYCAKYYQSGGYTPGKYDYWGQGTQVTVSS — what was its polyreactivity (PSR sort gate)?
Solution: high polyreactivity

Exercise: Sample QVQLVESGGGLVQARGSLRLSCAASGNTIIRYAMGWYRQAPGKERELVAAISYAGGRTYYADSVKGRFTISRDNAKNTVYLQMNSLTPEDTAVYYCNAASRYGGDYWGQGTQVTVSS — what was its polyreactivity (PSR sort gate)?
Solution: high polyreactivity

Exercise: Sample QDQLVESGGGLVQAGGSLRLSCAASGLTIYHYAMGWYRQAPGKERELVADISSGGSTSYADSVKGRFTISRDNAKNTVYLQMNSLKPEDTAVYYCAADYTWERYHRQIFRLDYWGQGTQVTVSS — what was its polyreactivity (PSR sort gate)?
Solution: low polyreactivity

Exercise: Sample QVQLVESGGGLVQAGGSLRLSCAASGFTFSRYAMGWYRQAPGKERELVAAISYSGGTTYYADSVKGRFTISRDNAKNTVYLQMNSLKPEDTAVYYCNARARGQLVGHYYYWGQGTQVTVSS — what was its polyreactivity (PSR sort gate)?
Solution: high polyreactivity

Exercise: Sample QVQLVESGGGLVQAGGSLRLSCAASGSTFATYAMGWYRQAPGKERELVAAISKSGGSTYYADSVKGRFTISRDNAKNTVYLQMNSLKPEDTAVYYCAAVGPYRWYDYWGQGTQVTVSS — what was its polyreactivity (PSR sort gate)?
Solution: high polyreactivity

Exercise: Sample QDQLVESGGGLVHAGGSLRLSCAASGNNFSSYVMGWYRQATGKERELVAAISSRGGSTYYADSVKGRFTISRDNSKNTVYLQMNCLKPEDTAVYYCAARYLSCYDWGQGTQVSVSS — what was its polyreactivity (PSR sort gate)?
Solution: high polyreactivity

Exercise: Sample QVQLVESGGGLVQAGGSLRLSCAASGNILVSYTMGWSRQAPGKDTELVAAINSGGNTNYADSVKGRFTISRDNAKNTVYLQMNSLKPEDTAVYYCNAYTDSLWVYPFWIYRDYDDWGHGTQVTVSS — what was its polyreactivity (PSR sort gate)?
Solution: low polyreactivity
